assay-details: Co-solvent and surfactant effects on pirfenidone saturation solubility
Assay type: physicochemical
conditions: water with co-solvent, pH 6.9, water, thermodynamic from solid, 4% EtOH, 96.0% water, pH 6.9

compound | solubility, mg/mL
Cc1ccc(=O)n(-c2ccccc2)c1 [pirfenidone, 5-methyl-1-phenyl-2-(1H)-pyridone] | 24.3

###

assay-details: Pharmacokinetics and tissue distribution (lung, plasma, heart, kidney) of co-solvent formulations, intratracheal bolus aerosol
Assay type: in vivo, Sprague-Dawley rats
conditions: Sprague-Dawley, rat, heart, other: intratracheal bolus aerosol, 4 mg/kg, Pirfenidone, heart tissue, Mean, Group 6; 0 hr; about 4 mg/kg IT aerosol
observable: concentration at 0 h (ng/g)

sample-smiles | observable | test-result
Cc1ccc(=O)n(-c2ccccc2)c1 | concentration at 0 h | 80

###

assay-details: Extended-duration intratracheal and oral pharmacokinetic study
Format: in vivo, Wistar rats
conditions: oral gavage 100 mg/kg
observable: Lung Tissue AUC(0-2 hr) (µg·h/g)

sample-smiles | observable | unit-label | test-result
Cc1ccc(=O)n(-c2ccccc2)c1 | Lung Tissue AUC(0-2 hr) | µg·h/g | 27.9

###

assay-details: Pharmacokinetics and tissue distribution (lung, plasma, heart, kidney) of co-solvent formulations, intratracheal bolus aerosol
Assay type: in vivo, Sprague-Dawley rats
conditions: Sprague-Dawley, rat, heart, other: intratracheal bolus aerosol (nebulizing catheter), 4 mg/kg, Pirfenidone, heart tissue, Mean, Group 1; 0.167 hr; about 4 mg/kg IT aerosol
observable: concentration at 0.167 hr (ng/g)

sample-smiles | observable | test-result
Cc1ccc(=O)n(-c2ccccc2)c1 | concentration at 0.167 hr | 4910

###

assay-details: Pharmacokinetics and lung-tissue distribution after oral gavage or intratracheal aerosol
Type: in vivo, Sprague-Dawley rats
conditions: Sprague-Dawley, rat, plasma, inhaled or intranasal; aerosol 5 mg/kg; read-out: Plasma AUC0-6 hrs

molecule | AUC(0-t)
Cc1ccc(=O)n(-c2ccccc2)c1 [pirfenidone, 5-methyl-1-phenyl-2-(1H)-pyridone] | 4500 ng·h/mL

###

assay-details: Extended-duration intratracheal and oral pharmacokinetic study
Assay type: in vivo, Wistar rats
conditions: Wistar, rat, plasma; oral gavage 30 mg/kg

molecule | AUC(0-t)
Cc1ccc(=O)n(-c2ccccc2)c1 [pirfenidone, 5-methyl-1-phenyl-2-(1H)-pyridone] | 12900 ng·h/mL

###

assay-details: Extended-duration intratracheal and oral pharmacokinetic study
Format: in vivo, Wistar rats
conditions: intratracheal aerosol 10 mg/kg

molecule | Lung Tissue AUC(0-2 hr), µg·h/g
Cc1ccc(=O)n(-c2ccccc2)c1 [pirfenidone, 5-methyl-1-phenyl-2-(1H)-pyridone] | 14.5

###

assay-details: Pharmacokinetics and tissue distribution (lung, plasma, heart, kidney) of co-solvent formulations, intratracheal bolus aerosol
Type: in vivo, Sprague-Dawley rats
conditions: Sprague-Dawley, rat, kidney, other: intratracheal bolus aerosol, 4 mg/kg, Pirfenidone, kidney tissue, Mean, Group 2; 0.333 hr; about 4 mg/kg IT aerosol

sample-smiles | concentration at 0.333 h
Cc1ccc(=O)n(-c2ccccc2)c1 | 7440 ng/g

###

assay-details: Co-solvent and surfactant effects on pirfenidone saturation solubility
Assay type: physicochemical
conditions: aqueous co-solvent/surfactant solvent system, pH 6.5, aqueous with cosolvent or surfactant or cyclodextrin, thermodynamic from solid, 0.04% PS80, 100.0% water, pH 6.5

sample-smiles | solubility / mg/mL
Cc1ccc(=O)n(-c2ccccc2)c1 | 19.9

###

assay-details: Extended-duration intratracheal and oral pharmacokinetic study
Assay type: in vivo, Wistar rats
conditions: Wistar, rat, plasma; oral gavage 10 mg/kg
observable: AUC(0-t) (ng·h/mL)

sample-smiles | test-result
Cc1ccc(=O)n(-c2ccccc2)c1 | 4400

###

assay-details: Pharmacokinetics and lung-tissue distribution after oral gavage or intratracheal aerosol
Assay type: in vivo, Sprague-Dawley rats
conditions: Sprague-Dawley, rat, lung, inhaled or intranasal, 5 mg/kg, aerosol 5 mg/kg; read-out: Lung T1/2 β

sample-smiles | unit-label | half-life
Cc1ccc(=O)n(-c2ccccc2)c1 | min | 45

###

assay-details: Pharmacokinetics and lung-tissue distribution after oral gavage or intratracheal aerosol
Format: in vivo, Sprague-Dawley rats
conditions: Sprague-Dawley, rat, plasma, inhaled or intranasal; aerosol 1 mg/kg
observable: Cmax (ng/mL)

sample-smiles | observable | unit-label | test-result
Cc1ccc(=O)n(-c2ccccc2)c1 | Cmax | ng/mL | 1100

###

assay-details: Pharmacokinetics and lung-tissue distribution after oral gavage or intratracheal aerosol
Type: in vivo, Sprague-Dawley rats
conditions: Sprague-Dawley, rat, plasma, inhaled or intranasal; aerosol 1 mg/kg; read-out: Plasma AUC0-6 hrs

sample-smiles | AUC(0-t)
Cc1ccc(=O)n(-c2ccccc2)c1 | 900 ng·h/mL

###

assay-details: Buffer and pH effects study: pirfenidone saturation solubility
Type: physicochemical
conditions: phosphate buffer, pH 7.5, aqueous buffer, thermodynamic from solid, Phosphate buffer 50 mM, pH 7.5, ambient temperature overnight

molecule | solubility / mg/mL
Cc1ccc(=O)n(-c2ccccc2)c1 [pirfenidone, 5-methyl-1-phenyl-2-(1H)-pyridone] | 16.3

###

assay-details: Co-solvent and surfactant effects on pirfenidone saturation solubility
Assay type: physicochemical
conditions: aqueous co-solvent/surfactant solvent system, pH 6.1, aqueous with cosolvent or surfactant or cyclodextrin, thermodynamic from solid, 4% EtOH, 0.1% CPB, 95.9% water, pH 6.1

sample-smiles | solubility, mg/mL
Cc1ccc(=O)n(-c2ccccc2)c1 | 23.9

###

assay-details: Co-solvent and surfactant effects on pirfenidone saturation solubility
Assay type: physicochemical
conditions: aqueous co-solvent/surfactant solvent system, pH 6.8, aqueous with cosolvent or surfactant or cyclodextrin, thermodynamic from solid, 8% EtOH, 8% PG, 84% phosphate buffer (5 mM), pH 6.8

molecule | solubility / mg/mL
Cc1ccc(=O)n(-c2ccccc2)c1 [pirfenidone, 5-methyl-1-phenyl-2-(1H)-pyridone] | 35

###

assay-details: Pharmacokinetics and tissue distribution (lung, plasma, heart, kidney) of co-solvent formulations, intratracheal bolus aerosol
Type: in vivo, Sprague-Dawley rats
conditions: Sprague-Dawley, rat, kidney, other: intratracheal bolus aerosol, 4 mg/kg, Pirfenidone, kidney tissue, Mean, Group 2; 0.167 hr; about 4 mg/kg IT aerosol
observable: concentration at 0.167 h (ng/g)

sample-smiles | unit-label | test-result
Cc1ccc(=O)n(-c2ccccc2)c1 | ng/g | 8300

###

assay-details: Pharmacokinetics and tissue distribution (lung, plasma, heart, kidney) of co-solvent formulations, intratracheal bolus aerosol
Type: in vivo, Sprague-Dawley rats
conditions: Sprague-Dawley, rat, heart, other: intratracheal bolus aerosol, 4 mg/kg, Pirfenidone, heart tissue, Mean, Group 2; 2.5 hr; about 4 mg/kg IT aerosol

sample-smiles | concentration at 2.5 h [ng/g]
Cc1ccc(=O)n(-c2ccccc2)c1 | 120

###

assay-details: Pharmacokinetics and lung-tissue distribution after oral gavage or intratracheal aerosol
Type: in vivo, Sprague-Dawley rats
conditions: Sprague-Dawley, rat, lung, inhaled or intranasal, 5 mg/kg, aerosol 5 mg/kg; read-out: Lung T1/2 α
observable: half-life

sample-smiles | test-result
Cc1ccc(=O)n(-c2ccccc2)c1 | < 1 min

###

assay-details: Co-solvent and surfactant effects on pirfenidone saturation solubility;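 note: samples equilibrated by overnight agitation at ambient temperature, with solubility taken from the supernatant after undissolved solid was removed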
Format: physicochemical
conditions: aqueous co-solvent/surfactant solvent system, pH 6.8, aqueous with cosolvent or surfactant or cyclodextrin, thermodynamic from solid, 8% EtOH, 16% PG, 76% phosphate buffer (5 mM), pH 6.8
observable: solubility (mg/mL)

sample-smiles | unit-label | test-result
Cc1ccc(=O)n(-c2ccccc2)c1 | mg/mL | 45.4

###

assay-details: Extended-duration intratracheal and oral pharmacokinetic study
Format: in vivo, Wistar rats
conditions: intratracheal aerosol 5 mg/kg

sample-smiles | unit-label | Lung Tissue AUC(0-2 hr)
Cc1ccc(=O)n(-c2ccccc2)c1 | µg·h/g | 6.6

###

assay-details: Extended-duration intratracheal and oral pharmacokinetic study
Assay type: in vivo, Wistar rats
conditions: Wistar, rat, plasma; oral gavage 100 mg/kg
observable: AUC(0-t) (ng·h/mL)

sample-smiles | observable | test-result
Cc1ccc(=O)n(-c2ccccc2)c1 | AUC(0-t) | 24200

###

assay-details: Pharmacokinetics and lung-tissue distribution after oral gavage or intratracheal aerosol
Type: in vivo, Sprague-Dawley rats
conditions: Sprague-Dawley, rat, plasma, inhaled or intranasal, 1 mg/kg, aerosol 1 mg/kg; read-out: Plasma T1/2

compound | half-life / min
Cc1ccc(=O)n(-c2ccccc2)c1 [pirfenidone, 5-methyl-1-phenyl-2-(1H)-pyridone] | 30

###

assay-details: Pharmacokinetics and tissue distribution (lung, plasma, heart, kidney) of co-solvent formulations, intratracheal bolus aerosol
Assay type: in vivo, Sprague-Dawley rats
conditions: Sprague-Dawley, rat, kidney, other: intratracheal bolus aerosol, 4 mg/kg, Pirfenidone, kidney tissue, Mean, Group 2; 0 hr; about 4 mg/kg IT aerosol

sample-smiles | concentration at 0 h [ng/g]
Cc1ccc(=O)n(-c2ccccc2)c1 | 470

###

assay-details: Extended-duration intratracheal and oral pharmacokinetic study
Type: in vivo, Wistar rats
conditions: Wistar, rat, plasma, inhaled or intranasal; intratracheal aerosol 5 mg/kg

compound | AUC(0-t) / ng·h/mL
Cc1ccc(=O)n(-c2ccccc2)c1 [pirfenidone, 5-methyl-1-phenyl-2-(1H)-pyridone] | 5800

###

assay-details: Pharmacokinetics and tissue distribution (lung, plasma, heart, kidney) of co-solvent formulations, intratracheal bolus aerosol
Assay type: in vivo, Sprague-Dawley rats
conditions: Sprague-Dawley, rat, kidney, other: intratracheal bolus aerosol, 4 mg/kg, Pirfenidone, kidney tissue, Mean, Group 1; 0.667 hr; about 4 mg/kg IT aerosol

sample-smiles | concentration at 0.667 h, ng/g
Cc1ccc(=O)n(-c2ccccc2)c1 | 2860
